Attribute: viability at 28.5 h, 10 µM
- protocol: in vitro
- setup-conditions: human, hela cells, % viability
property-name: viability at 28.5 h, 10 µM (%)

[[record]]
compound = "CCC(C)c1ccccc1NC(=O)c1cc(=O)[nH]c2ccccc12 (stereo not drawn)"
property_name = "viability at 28.5 h, 10 µM"
assay_result = 89.6

[[record]]
compound = "CCCc1ccc(S(=O)(=O)Nc2ccccc2C(=O)O)cc1"
property_name = "viability at 28.5 h, 10 µM"
assay_result = 72.4

[[record]]
compound = "CC(C)CCNC(=O)c1cccc(-n2c(=S)[nH]c3cc(Cl)ccc3c2=O)c1"
property_name = "viability at 28.5 h, 10 µM"
assay_result = 107

[[record]]
compound = "COCCNc1nccnc1-c1ccccc1"
property_name = "viability at 28.5 h, 10 µM"
assay_result = 105

[[record]]
compound = "Cc1cn([C@H]2C[C@@H](O)[C@@H](CO)O2)c(=O)nc1N"
property_name = "viability at 28.5 h, 10 µM"
assay_result = 100

[[record]]
compound = "O=C(O)c1ccc(NC(=O)C2CCN(S(=O)(=O)c3ccccc3)CC2)cc1"
property_name = "viability at 28.5 h, 10 µM"
assay_result = 110

[[record]]
compound = "COc1ccc(NCc2cc(=O)oc3cc4c(cc23)CCC4)cn1"
property_name = "viability at 28.5 h, 10 µM"
assay_result = 88

[[record]]
compound = "Cc1ccc(-c2ccc(/C=C/c3cc(C(F)(F)F)nc(=O)[nH]3)o2)cc1Cl"
property_name = "viability at 28.5 h, 10 µM"
assay_result = 103

[[record]]
compound = "Fc1cccc2sc(Nc3nnc(-c4ccco4)o3)nc12"
property_name = "viability at 28.5 h, 10 µM"
assay_result = 82.6


###

Quick reference: viability at 28.5 h, 10 µM of the listed items.
- protocol: in vitro
- setup-conditions: human, hela cells, % viability
property-name: viability at 28.5 h, 10 µM (%)

[[record]]
molecule = "O=C(Cc1csc(-c2c(Cl)cccc2Cl)n1)NC[C@H]1CC[C@H](C(=O)O)CC1"
unit_abbrev = "%"
assay_result = 85.7

[[record]]
molecule = "O=C(CCN1C(=O)c2ccc(Br)cc2C1=O)N1CCN(Cc2ccccc2)CC1"
unit_abbrev = "%"
assay_result = 104

[[record]]
molecule = "CS(=O)(=O)N/N=C/c1cccc(Br)c1"
unit_abbrev = "%"
assay_result = 92.5

[[record]]
molecule = "COc1ccc(CN(C)c2c(C)nc3c(OCCCN(C)S(C)(=O)=O)cccn23)cc1"
unit_abbrev = "%"
assay_result = 90

[[record]]
molecule = "COc1ccc(NC(=S)NCCCN(C)C)cc1"
unit_abbrev = "%"
assay_result = 96.2

[[record]]
molecule = "CCCc1n[nH]c(Cc2c(Cl)cccc2Cl)c1C(=O)OCC"
unit_abbrev = "%"
assay_result = 88.9

[[record]]
molecule = "COc1cc(CN2CCc3c([nH]c4ccccc34)C2)c([N+](=O)[O-])cc1OC"
unit_abbrev = "%"
assay_result = 90.6

[[record]]
molecule = "Cc1ccccc1/N=C1/NC(=O)/C(=C/c2cccn2-c2ccc(S(N)(=O)=O)cc2)S1"
unit_abbrev = "%"
assay_result = 107

[[record]]
molecule = "O=C(O)c1ccc(N2C(=O)C3C4C=CC(C4=C(c4ccccc4)c4ccccc4)C3C2=O)cc1 (stereo not drawn)"
unit_abbrev = "%"
assay_result = 104

